- testSummary: Metabolic stability in mouse liver microsomes assessed as half life at 0.1 uM preincubated for 10 mins followed by NADPH addition and measured upto 60 mins by LC-MS/MS analysis
- Assay type: ADME, Microsome
- testContext: time < 70 min
measurementName: half-life at 0.1 µM (min)
Answers are plain numbers, in min.

Record half-life at 0.1 µM for all entries; do not skip any.
1. C=CC(=O)Nc1ccccc1-c1c(Cl)cc(NC(=O)Cc2ccc(S(=O)(=O)CC)cc2)cc1Cl
2. C=CC(=O)Nc1ccccc1-c1ccc(NC(=O)Cc2ccc(S(=O)(=O)CC)cc2)cc1Cl
3. C=CC(=O)Nc1ccccc1-c1ccc(NC(=O)Cc2ccc(S(=O)(=O)CC)cc2)cc1F
4. C=CC(=O)Nc1ccccc1-c1ccc(NC(=O)Cc2ccc(S(=O)(=O)CC)cc2)cc1C

Response:
[2.07, 21.3, 8.17, 10]
